Field: pIC50. Provide a value for each of the compounds that follow.
- experimental-target: baculovirus-expressed ALK (Homo sapiens)
- Construct: host or cells: baculovirus expression system
- Sequence (Q9UM73 19-1620): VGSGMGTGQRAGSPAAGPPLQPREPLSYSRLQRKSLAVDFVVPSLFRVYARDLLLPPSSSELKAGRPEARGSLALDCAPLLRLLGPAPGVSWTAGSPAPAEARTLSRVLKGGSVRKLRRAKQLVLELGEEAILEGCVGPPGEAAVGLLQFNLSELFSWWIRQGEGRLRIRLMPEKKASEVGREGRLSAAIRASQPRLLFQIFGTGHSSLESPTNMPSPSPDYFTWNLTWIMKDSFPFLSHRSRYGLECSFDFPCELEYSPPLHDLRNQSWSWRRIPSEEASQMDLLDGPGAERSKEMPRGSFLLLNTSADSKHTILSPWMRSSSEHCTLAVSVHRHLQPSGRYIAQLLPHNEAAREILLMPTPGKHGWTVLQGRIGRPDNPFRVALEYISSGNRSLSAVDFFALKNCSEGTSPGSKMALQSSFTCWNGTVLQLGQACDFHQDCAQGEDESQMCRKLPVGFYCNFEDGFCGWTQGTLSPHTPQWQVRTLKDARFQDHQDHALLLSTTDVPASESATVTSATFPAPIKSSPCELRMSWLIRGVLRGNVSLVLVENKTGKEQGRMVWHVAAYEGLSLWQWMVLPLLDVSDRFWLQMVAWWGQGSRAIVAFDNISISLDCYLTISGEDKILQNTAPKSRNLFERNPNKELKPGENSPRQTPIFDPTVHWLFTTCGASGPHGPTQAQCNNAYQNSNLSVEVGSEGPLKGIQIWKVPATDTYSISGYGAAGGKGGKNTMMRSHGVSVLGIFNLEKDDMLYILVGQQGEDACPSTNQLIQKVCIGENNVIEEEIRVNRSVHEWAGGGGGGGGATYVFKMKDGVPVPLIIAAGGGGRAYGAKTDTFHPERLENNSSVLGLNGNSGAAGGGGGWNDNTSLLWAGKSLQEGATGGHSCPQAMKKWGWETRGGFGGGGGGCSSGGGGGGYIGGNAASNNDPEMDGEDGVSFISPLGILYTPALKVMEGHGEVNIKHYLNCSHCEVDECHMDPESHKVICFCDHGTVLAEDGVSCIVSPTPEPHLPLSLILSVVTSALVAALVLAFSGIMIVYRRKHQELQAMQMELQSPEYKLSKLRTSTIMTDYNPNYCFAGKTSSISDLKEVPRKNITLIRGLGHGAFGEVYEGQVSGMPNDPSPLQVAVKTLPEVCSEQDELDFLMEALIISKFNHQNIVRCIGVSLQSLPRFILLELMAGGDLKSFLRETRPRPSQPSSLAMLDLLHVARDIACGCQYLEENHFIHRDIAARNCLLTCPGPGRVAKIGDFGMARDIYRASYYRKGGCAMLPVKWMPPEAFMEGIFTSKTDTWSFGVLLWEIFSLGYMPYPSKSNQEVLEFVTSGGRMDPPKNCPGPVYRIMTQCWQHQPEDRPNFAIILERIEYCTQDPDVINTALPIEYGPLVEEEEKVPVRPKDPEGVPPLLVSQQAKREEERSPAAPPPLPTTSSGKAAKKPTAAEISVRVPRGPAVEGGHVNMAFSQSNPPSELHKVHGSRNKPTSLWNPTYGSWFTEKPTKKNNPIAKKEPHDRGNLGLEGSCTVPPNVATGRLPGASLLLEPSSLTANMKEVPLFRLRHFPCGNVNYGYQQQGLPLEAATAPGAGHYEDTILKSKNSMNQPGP
- assay-procedure: ALK Kinase Assay (ELISA-type, time-resolved fluorescence)
- Format: biochemical
- measurement-parameters: ALK kinase inhibition, 1 μM ATP; read-out: ALK Activity
pIC50: −log10 of the molar value.

(Q) pIC50 lookup needed for COc1cc2c(cc1Nc1ncc(Cl)c(Nc3ccccc3S(=O)(=O)N3CC[C@@H](O)C3)n1)CCN(C[C@H](C)O)CC2 [Example 1554] , thanks.
(A) > 7.00

(Q) pIC50 lookup needed for CNC(=O)c1cccc(F)c1Nc1nc(Nc2ccc3c(c2)NC(=O)CN(C(=O)OCc2ccccc2)C3)ncc1Cl [Example 1857] , thanks.
(A) 6.00 to 7.00

(Q) pIC50 lookup needed for CC1(C)CCCN(C(=O)CN2CCCC2)c2cc(Nc3ncc(Cl)c(N[C@H]4[C@@H](C(N)=O)[C@@H]5C=C[C@H]4C5)n3)ccc21 [Example 1607] , thanks.
(A) > 7.00

(Q) pIC50 lookup needed for CNC(=O)c1sccc1Nc1nc(Nc2ccc3c(c2)-n2ccnc2CCC3)ncc1Cl [Example 1840] , thanks.
(A) 6.00 to 7.00

(Q) pIC50 lookup needed for COc1ccc2c(c1Nc1ncc(Cl)c(N[C@@H]3CCCC[C@H]3NS(C)(=O)=O)n1)CN(Cc1ccccc1)CC(=O)N2 [Example 1654] , thanks.
(A) 5.00 to 6.00

(Q) pIC50 lookup needed for CCN1CCCOc2cc(Nc3ncc(Cl)c(Nc4c(F)cccc4C(=O)NC)n3)ccc21 [Example 1692] , thanks.
(A) > 7.00

(Q) pIC50 lookup needed for Cc1nnc(-c2cccc(F)c2Nc2nc(Nc3ccc4c(c3)CCOC(=O)N4C)ncc2Cl)o1 [Example 1787] , thanks.
(A) 5.00 to 6.00
